# target of assay: DNA
# protocol summary: Binding affinity to biotin-labeled duplex DNA AAAGAACTTT (unknown origin) assessed as dissociation equilibrium binding constant by SPR analysis
pKd: −log10 of the molar value.
readout name: pKd

| smiles record | result |
| --- | --- |
| O=C1c2cc(-c3ccc(CN4CCCC4)cc3)c3c4c(cc(NCCN5CCCC5)c(c24)C(=O)N1CCCN1CCOCC1)C(=O)N(CCCN1CCOCC1)C3=O | < 7.00 |

The record that follows has no pKd shown yet.
Entry `O=C1c2ccc3c4c(c(NCCN5CCCC5)cc(c24)C(=O)N1CCCN1CCOCC1)C(=O)N(CCCN1CCOCC1)C3=O` : reported pKd = ?
< 7.00

###

Measured Kd values are reported for all entries that follow.
# target of assay: Quadruplex DNA
# protocol summary: Binding affinity to biotin-labeled human TERRA G4-quadruplex RNA assessed as dissociation equilibrium binding constant by SPR analysis
# Assay type: nucleic-acid assay
Express your answer as a number followed by its unit.

| smiles record | result |
| --- | --- |
| CN1CCN(CCCNc2cc3c4c(c(NCCCN5CCN(C)CC5)cc5c4c2C(=O)N(CCCN2CCOCC2)C5=O)C(=O)N(CCCN2CCOCC2)C3=O)CC1 | 3 nM |
| O=C1c2ccc3c4c(c(NCCN5CCCC5)cc(c24)C(=O)N1CCCN1CCOCC1)C(=O)N(CCCN1CCOCC1)C3=O | 4 nM |

The record that follows has no Kd shown yet.
State its Kd on Quadruplex DNA: `O=C1c2cc(-c3ccc(CN4CCCC4)cc3)c3c4c(cc(NCCN5CCCC5)c(c24)C(=O)N1CCCN1CCOCC1)C(=O)N(CCCN1CCOCC1)C3=O`
3 nM

###

Measured Kd values are reported for all entries that follow.
# target of assay: Quadruplex DNA
# protocol summary: Binding affinity to human TERRA G4-quadruplex RNA assessed as dissociation equilibrium binding constant by fluorescence anisotropy titration based fluorescence spectrophotometry
# Assay type: nucleic-acid assay
Express the result in nM but write the number alone.

Example entries begin here.
| smiles record | target of assay | readout name | measured number |
| --- | --- | --- | --- |
| O=C1c2cc(-c3ccc(CN4CCCC4)cc3)c3c4c(cc(NCCN5CCCC5)c(c24)C(=O)N1CCCN1CCOCC1)C(=O)N(CCCN1CCOCC1)C3=O | Quadruplex DNA | Kd | 2 |
| O=C1c2ccc3c4c(c(NCCN5CCCC5)cc(c24)C(=O)N1CCCN1CCOCC1)C(=O)N(CCCN1CCOCC1)C3=O | Quadruplex DNA | Kd | 3 |

The record that follows has no Kd shown yet.
Entry `CN1CCN(CCCNc2cc3c4c(c(NCCCN5CCN(C)CC5)cc5c4c2C(=O)N(CCCN2CCOCC2)C5=O)C(=O)N(CCCN2CCOCC2)C3=O)CC1` : reported Kd = ?
2

###

# target of assay: Quadruplex DNA
# protocol summary: Binding affinity to human HTR G4-quadruplex DNA assessed as dissociation equilibrium binding constant by intrinsic fluorescence titration based fluorescence spectrophotometry
# Type: nucleic-acid assay
readout name: Kd (nM)
Express the result in nM but write the number alone.

Example entries begin here.
| compound | Kd [nM] |
| --- | --- |
| CN1CCN(CCCNc2cc3c4c(c(NCCCN5CCN(C)CC5)cc5c4c2C(=O)N(CCCN2CCOCC2)C5=O)C(=O)N(CCCN2CCOCC2)C3=O)CC1 | 10 |
| O=C1c2ccc3c4c(c(NCCN5CCCC5)cc(c24)C(=O)N1CCCN1CCOCC1)C(=O)N(CCCN1CCOCC1)C3=O | 94 |

Entry O=C1c2cc(-c3ccc(CN4CCCC4)cc3)c3c4c(cc(NCCN5CCCC5)c(c24)C(=O)N1CCCN1CCOCC1)C(=O)N(CCCN1CCOCC1)C3=O [QN-302] : reported Kd = ?
29

###

Measured Kd values are reported for all entries that follow.
# target of assay: Quadruplex DNA
# protocol summary: Binding affinity to biotin-labeled human HTR G4-quadruplex DNA assessed as dissociation equilibrium binding constant by SPR analysis
# Format: nucleic-acid assay
Express the result in nM but write the number alone.

| smiles record | Kd / nM |
| --- | --- |
| O=C1c2ccc3c4c(c(NCCN5CCCC5)cc(c24)C(=O)N1CCCN1CCOCC1)C(=O)N(CCCN1CCOCC1)C3=O | 82 |
| CN1CCN(CCCNc2cc3c4c(c(NCCCN5CCN(C)CC5)cc5c4c2C(=O)N(CCCN2CCOCC2)C5=O)C(=O)N(CCCN2CCOCC2)C3=O)CC1 | 5 |

The record that follows has no Kd shown yet.
Entry `O=C1c2cc(-c3ccc(CN4CCCC4)cc3)c3c4c(cc(NCCN5CCCC5)c(c24)C(=O)N1CCCN1CCOCC1)C(=O)N(CCCN1CCOCC1)C3=O` : reported Kd = ?
28

###

# target of assay: Quadruplex DNA
# protocol summary: Binding affinity to biotin-labeled human TERT G4-quadruplex DNA assessed as dissociation equilibrium binding constant by SPR analysis
# Type: nucleic-acid assay
readout name: Kd (nM)
Express the result in nM but write the number alone.

| molecule | Kd [nM] |
| --- | --- |
| O=C1c2ccc3c4c(c(NCCN5CCCC5)cc(c24)C(=O)N1CCCN1CCOCC1)C(=O)N(CCCN1CCOCC1)C3=O | 12 |
| O=C1c2cc(-c3ccc(CN4CCCC4)cc3)c3c4c(cc(NCCN5CCCC5)c(c24)C(=O)N1CCCN1CCOCC1)C(=O)N(CCCN1CCOCC1)C3=O [QN-302] | 4 |

The record that follows has no Kd shown yet.
Entry `CN1CCN(CCCNc2cc3c4c(c(NCCCN5CCN(C)CC5)cc5c4c2C(=O)N(CCCN2CCOCC2)C5=O)C(=O)N(CCCN2CCOCC2)C3=O)CC1` : reported Kd = ?
2
